Source: patent US20110028509A1

Molecular target: CXCR3 (Homo sapiens, UniProt P49682)
Sequence (P49682 1-368): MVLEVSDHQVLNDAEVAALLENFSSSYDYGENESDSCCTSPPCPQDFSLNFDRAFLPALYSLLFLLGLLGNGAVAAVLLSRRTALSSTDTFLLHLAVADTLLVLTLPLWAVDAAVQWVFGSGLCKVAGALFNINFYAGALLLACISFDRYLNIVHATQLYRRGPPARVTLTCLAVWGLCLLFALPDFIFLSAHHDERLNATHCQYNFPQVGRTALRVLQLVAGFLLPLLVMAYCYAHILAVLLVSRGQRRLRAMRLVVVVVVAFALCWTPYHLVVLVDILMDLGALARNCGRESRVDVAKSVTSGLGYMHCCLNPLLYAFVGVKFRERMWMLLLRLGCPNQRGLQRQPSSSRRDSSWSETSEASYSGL
Assay: CXCR3 Ca2+ mobilization (FLIPR), stable hCXCR3-CHO cell line, I-TAC stimulated
Assay type: cell-based
Parameters: host or cells: CHO cells stably expressing hCXCR3
Settings: hCXCR3-CHO cells, I-TAC 100 nM stimulated Ca2+ response; read-out: Ca-ITAC
Recorded measurements of IC50, one per entry
Please give a number only; it is taken to be in µM.

Past entries and their recorded results:
O=S(=O)(c1ccc(Cl)cc1)N(Cc1ccc(-c2nnn[nH]2)cc1)Cc1ccc(Cl)cc1F :: 3
CC(C)(C)c1ccc(S(=O)(=O)N(Cc2ccc(-c3nnn[nH]3)cc2)Cc2ccccn2)cc1 :: 3

IN: Data request, read-out IC50, for `O=C(O)c1ccc(CN(Cc2ccccn2)S(=O)(=O)c2ccc(Cl)cc2)cc1F`
OUT: 3.04

###

target: CXCR3 (Homo sapiens); assay: Chemotaxis assay IP10, L1.2 recombinant cells expressing hCXCR3; format: cell-based; settings: L1.2 hCXCR3 cells, IP10 around 0.3 nM, 4 hours
Recorded measurements of IC50, one per entry

CS(=O)(=O)CCCS(=O)(=O)NC(=O)c1ccc(CN(Cc2ccccn2)S(=O)(=O)c2ccc(Cl)cc2)cc1 [Example 53] :: 1.32 µM
O=C(NS(=O)(=O)Cc1ccccc1)c1ccc(CN(Cc2ccccn2)S(=O)(=O)c2ccc(Cl)cc2)cc1 [Example 11] :: 0.404 µM

Read the next record carefully.
IN: Data request, read-out IC50, for O=S(=O)(c1ccc(Cl)cc1)N(Cc1ccc(-c2nnn[nH]2)cc1)Cc1c(F)cccc1F [Example 62]
OUT: 0.183 µM

###

Recorded measurements of IC50, one per entry
Molecular target: UniProt P49682
Sequence (P49682 1-368): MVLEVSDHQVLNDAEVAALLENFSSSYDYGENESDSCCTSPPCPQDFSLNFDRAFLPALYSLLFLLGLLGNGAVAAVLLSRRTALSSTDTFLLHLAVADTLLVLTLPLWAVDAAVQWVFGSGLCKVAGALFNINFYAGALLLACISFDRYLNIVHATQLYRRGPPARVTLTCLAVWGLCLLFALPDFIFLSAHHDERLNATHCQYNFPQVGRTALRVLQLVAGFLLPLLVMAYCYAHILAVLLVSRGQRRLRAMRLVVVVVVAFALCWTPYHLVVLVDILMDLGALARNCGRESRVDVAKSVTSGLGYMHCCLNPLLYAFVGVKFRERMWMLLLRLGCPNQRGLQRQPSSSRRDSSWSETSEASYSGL
Experiment: CXCR3 Ca2+ mobilization (FLIPR), stable hCXCR3-CHO cell line, I-TAC stimulated
Format: cell-based
Design: host or cells: CHO cells stably expressing hCXCR3
Details: hCXCR3-CHO cells, I-TAC 100 nM stimulated Ca2+ response; read-out: Ca-ITAC
Please give a number only; it is taken to be in µM.

CC(C)(C)c1nc(CN(Cc2ccc(-c3nnn[nH]3)cc2)S(=O)(=O)c2ccc(Cl)cc2)no1 [Example 69] :: 0.056

IN: Provide the documented IC50 with UniProt P49682 as the system for N#Cc1ccc(S(=O)(=O)N(Cc2ccc(C(=O)NCCc3cccc(Cl)c3)cc2)Cc2cccnc2)cc1 [Example 110]
OUT: 0.75

IN: Provide the documented IC50 with UniProt P49682 as the system for O=C(O)c1ccc(CN(Cc2cnccn2)S(=O)(=O)c2ccc(Cl)cc2)cc1 [Example 319]
OUT: 20

IN: Provide the documented IC50 with UniProt P49682 as the system for CC(CN(Cc1ccc(-c2nnn[nH]2)cc1)S(=O)(=O)c1ccc(Cl)cc1)c1ccccc1 (stereo not shown) [Example 227]
OUT: 5
